Measured values drawn from the supplement of paper PMC10567573 for this set.

# Protocol text: protein stability index of a GFP-peptide fusion (GPS, HEK-293T) (PSI 1-6); higher = more stable;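 note: 24-mer peptide tiles fused after GFP, lentivirally expressed, FACS-sorted into six equal bins by GFP/DsRed ratio, decoded by Illumina sequencing, PSI is the read-weighted mean bin number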
# Conditions: treatment: MLN4924 1 uM, 8 h; c terminus: a fixed tail appended
Measured protein stability index, listed per entry.
Just the number, please.

# input I am curious: what protein stability index value has been reported for AGMGKVTSASFGEESTPGQTNSET [HDAC6] ?
# output 5.25

# input Dear colleague, I am looking for the recorded protein stability index of the following sequence: HPFLYLSLEISPQNVDVNVHPTKH [MLH1]
# output 2.37

# input Which measured protein stability index value corresponds to GAGLPQFQSISLRKIQFNFPYFRS [CLCN6] ?
# output 2.21

# input If you can, please state the reported protein stability index value of KYDVKKVEEVVYDLSIRGFNKETA [TSN] .
# output 3.64

# input Consider the sequence shown here: YQHFLQDCVDGLFKEVKEKFKGWV [DLC1] What is its recorded protein stability index?
# output 2.02

# input Entry QPVMQSDRTAIRSDTTHLVTLGGV [KLHL13] has what protein stability index?
# output 3.83

# input # protein stability index lookup, item FSLFGDISVLQQQGSLSNTYLSKV [FBXO33]
# output 2.13
